- experiment-summary: Solubility in toluene, precipitate check by tyndall effect
- Assay type: physicochemical
- conditions-used: toluene 100 ml, left 30 minutes at room temperature (25° C.), dissolved amount measured
quantity: Solubility
Answer by giving the amount and then stating its unit.

Example molecules with recorded Solubility:
>>> result("CC(C)c1ccc([Si](c2ccc(C(C)C)cc2)(c2ccc(C(C)C)cc2)c2ccc(N(c3ccc(-c4cc5c6ccccc6c(-c6ccc(N(c7ccc([Si](c8ccc(C(C)C)cc8)(c8ccc(C(C)C)cc8)c8ccc(C(C)C)cc8)cc7)c7cccc(-c8cccc([Si](c9ccc(C(C)C)cc9)(c9ccc(C(C)C)cc9)c9ccc(C(C)C)cc9)c8)c7)cc6)cc5c5ccccc45)cc3)c3cccc(-c4cccc([Si](c5ccc(C(C)C)cc5)(c5ccc(C(C)C)cc5)c5ccc(C(C)C)cc5)c4)c3)cc2)cc1 [BD38]")
"15 wt %"
>>> result("c1ccc([Si](c2ccccc2)(c2ccccc2)c2cccc(-c3ccccc3N(c3ccc(-c4cc5c6ccccc6c(-c6ccc(N(c7cccc([Si](c8ccccc8)(c8ccccc8)c8ccccc8)c7)c7ccccc7-c7cccc([Si](c8ccccc8)(c8ccccc8)c8ccccc8)c7)cc6)cc5c5ccccc45)cc3)c3cccc([Si](c4ccccc4)(c4ccccc4)c4ccccc4)c3)c2)cc1 [BD24]")
"10 wt %"

Ask: Indicate its recorded Solubility; the molecule in question is c1ccc(-c2ccc(N(c3ccccc3)c3cc4c5ccccc5c(N(c5ccccc5)c5ccc(-c6ccccc6)cc5)cc4c4ccccc34)cc2)cc1 [Compound C, reference compound]
Reply: 0.1 wt %

Ask: Indicate its recorded Solubility; the molecule in question is CC(C)c1ccc([Si](c2ccc(C(C)C)cc2)(c2ccc(C(C)C)cc2)c2ccc(N(c3cccc(-c4cccc([Si](c5ccc(C(C)C)cc5)(c5ccc(C(C)C)cc5)c5ccc(C(C)C)cc5)c4)c3)c3cc4c5ccccc5c(N(c5ccc([Si](c6ccc(C(C)C)cc6)(c6ccc(C(C)C)cc6)c6ccc(C(C)C)cc6)cc5)c5cccc(-c6cccc([Si](c7ccc(C(C)C)cc7)(c7ccc(C(C)C)cc7)c7ccc(C(C)C)cc7)c6)c5)cc4c4ccccc34)cc2)cc1 [BD30]
Reply: 15 wt %

Reference source: patent US11299503B2
